Assay: chemical genetic growth profiling, strain panel (AID 1159580);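 also: tested at 20 µM; growth read once vehicle control cultures reached saturation at 30 °C; 1 = growth at the plate median or of vehicle wells; lower values mean less growth of the strain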
Details: S. cerevisiae deletion strains, growth OD, locus YLR027C, strain aat2, stronger effect = lower value
Screen size: about 5,500 compounds; about 2,000 (36%) were called active. Roughly 18% stayed inconclusive and do not appear here. This is one part of the list.

- molecule: "COC(=O)C[C@H]1C2(C)CC34OC5(C)O[C@@]6([C@H](OC(C)=O)C(OC(C)=O)[C@]7(C)C(/C(=C(/O)C(C)C)C(=O)O[C@H]7c7ccoc7)[C@@]6(O5)[C@H](OC(C)=O)[C@@]3(O)C2OC(=O)C(C)C)[C@]14C (some centres not stated)"
  normalized growth: 1
- molecule: "OCCc1ccccc1"
  normalized growth: 0.965
- molecule: "CCC(C)C(=O)O[C@@H]1C[C@@]2(C)[C@H](c3ccoc3)OC(=O)CC23OC2(C)O[C@]14[C@]1(C)[C@@H](CC(=O)OC)C5(C)CC1(O)[C@](O)(C5OC(=O)C1(C)OC1C)[C@@H](OC(C)=O)[C@]34O2 (some centres not stated)"
  normalized growth: 1.01
- molecule: "COc1ccc2c(c1)OC1(O)COc3cc(OC)c(OC)cc3C1=C2 (configuration not stated)"
  normalized growth: 0.985
- molecule: "COC(=O)[C@@H]1OC(=O)C2OC23[C@@]1(C)CCC1[C@]2(C)C(C[C@H](O)[C@]13C)C(C)(C)[C@H](OC(C)=O)C[C@@H]2OC(C)=O (some centres not stated)"
  normalized growth: 1.02
- molecule: "O=C(O)CCCc1ccccc1"
  normalized growth: 0.984
- molecule: "O=S(=O)(O)c1cc(N=C=S)ccc1/C=C/c1ccc(N=C=S)cc1S(=O)(=O)O"
  normalized growth: 1.02
